Catalogue of Kd readings, one per entry.
tested on: T1, human GITR-Fc fusion protein (human, UniProt Q9Y5U5 26-162)
T1 construct: extracellular domain; also called hGITR-Fc; recombinant human GITR-Fc; not shown: Fc part
T1 sequence (looked up): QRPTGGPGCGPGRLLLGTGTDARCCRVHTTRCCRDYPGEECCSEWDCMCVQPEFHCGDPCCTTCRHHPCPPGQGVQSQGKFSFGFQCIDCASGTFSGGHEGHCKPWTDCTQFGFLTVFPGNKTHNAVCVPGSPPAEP
method notes: SPR (BIAcore 2000), mAb captured on anti-mouse Fc, antigen injected
Respond numerically; units are nM and should not be typed.

Sample answers from the record:
q: I am curious: what Kd value has been reported for anti-GITR antibody clone 698 (antibody, V domains shown, Murine hybridoma antibody; also called 698-GITR2; 698 GITR-2) VH: EVQLQQSGTVLARPGASVKMSCEASGYSFTTYWMHWIKQRPGQGLEWIGAIYPGNSDTGYNQKFKGKAKLTAVTSATTAYMELSSLTDEDSAVYYCTRTSTYPHFDYWGQGTTLTVSS VL: DILLTQSPAILSVSPGERVSFSCRASQSIGTSIHWYQQRTNGSPRLLIKYASESISGIPSRFSGSGSGTDFTLNINSVESEDIADYYCQQSNNWPLTFGAGTKLELK ?
a: 6.67

q: Return reported Kd; argument: anti-GITR antibody clone 827 (antibody, V domains shown, Murine hybridoma antibody; also called 827-GITR2; 827 GITR-2) VH: EVQLQQSGTVLARPGASVKMSCETSGYSFTTYWIHWIKQRPGQGLEWIATIYPGNSDAGYNQKFRGKAKLTAVTSASTAYMELSSLTNEDSAVYYCTRSSTYPHFDYWGQGTTLTVSS VL: DILLTQSPAILSVSPGERVSFSCRASQSIGTSIHWYQQRTNDSPRLLIKYASESISGIPSRFSGSGSGTDFTLNINSVESEDIADYYCQQTNNWPLTFGAGTKLELK
a: 4.43

// next item, Kd requested
q: Given anti-GITR antibody clone 1649 (antibody, V domains shown, Murine hybridoma antibody; also called 1649-GITR2; 1649 GITR-2) VH: EVQLQQSGTVLAGPGTSVKMSCEASGYSFTTYWIHWIKQRPGQGLEWIGAIYPGNSDAGYNQKFKGKAKLTAVTSASTAYMELSSLTNEDSAVYYCTRSSTYPHFDYWGQGTTLTVSS VL: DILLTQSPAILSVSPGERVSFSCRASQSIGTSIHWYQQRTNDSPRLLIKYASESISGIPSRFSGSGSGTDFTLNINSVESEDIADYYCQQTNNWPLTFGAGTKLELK , state its recorded Kd.
a: 1.84
